- TESTED ON: PmSiaT (Proteus mirabilis)
- Construct: made in house
- Sequence (B4EZY7 whole entry): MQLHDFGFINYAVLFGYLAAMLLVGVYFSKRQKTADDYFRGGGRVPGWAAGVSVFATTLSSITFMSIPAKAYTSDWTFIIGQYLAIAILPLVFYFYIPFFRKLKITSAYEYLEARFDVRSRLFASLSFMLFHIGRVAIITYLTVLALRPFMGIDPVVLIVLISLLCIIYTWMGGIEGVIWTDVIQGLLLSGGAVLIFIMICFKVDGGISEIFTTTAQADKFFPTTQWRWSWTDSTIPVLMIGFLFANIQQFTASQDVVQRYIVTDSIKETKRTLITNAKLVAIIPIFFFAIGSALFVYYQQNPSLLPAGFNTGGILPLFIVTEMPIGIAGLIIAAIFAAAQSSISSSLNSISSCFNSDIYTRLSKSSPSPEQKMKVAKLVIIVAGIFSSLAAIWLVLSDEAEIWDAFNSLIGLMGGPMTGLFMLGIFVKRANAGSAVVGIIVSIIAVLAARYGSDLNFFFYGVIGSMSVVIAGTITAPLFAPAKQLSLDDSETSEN
- TEST METHOD NOTES: nanoDSF thermal shift assay, PmSiaT
- Assay type: binding
- CONDITION DETAILS: PmSiaT Tm, average of experiment 1
READOUT KIND: Average 1 (°C)

INSERT INTO results (molecule, endpoint_result) VALUES
  ('CC(=O)NC1C(O)CC(O)(C(=O)O)OC1C(O)C(O)CI (centres unmarked)', 46.9),
  ('O=C(NC1C(O)CC(O)(C(=O)O)OC1C(O)C(O)CO)c1ccccc1 (centres unmarked)', 45.2),
  ('CC(=O)NC1C(OCc2cc(F)cc(F)c2)CC(O)(C(=O)O)OC1C(O)C(O)CO (centres unmarked)', 56.7),
  ('CCSCC(O)C(O)C1OC(O)(C(=O)O)CC(O)C1NC(C)=O (centres unmarked)', 45.9),
  ('CSCC(O)C(O)C1OC(O)(C(=O)O)CC(O)C1NC(C)=O (centres unmarked)', 45.9),
  ('CC(=O)NC1C(O)CC(O)(C(=O)O)OC1C(O)C(C)O (centres unmarked)', 46.0),
  ('CC(=O)N[C@H]1[C@H]([C@H](O)[C@H](O)CO)OC(O)(C(=O)O)C[C@@H]1O (some centres unmarked) [Neu5Ac, 5-N-acetyl neuraminic acid, reference compound]', 49.0),
  ('O=C(CCl)NC1C(O)CC(O)(C(=O)O)OC1C(O)C(O)CO (centres unmarked)', 49.8);
